The measurements presented in this section are drawn from PubChem BioAssay (EPA / NIEHS).

Read-out: urokinase plasminogen activator (uPA), PLAU (gene 5328)
procedure_text: BSK_BE3C_uPA: BioMAP Diversity Plus: BE3C Assay for urokinase plasminogen activator (uPA) Biomarker Activity (AID 2283038)
setup_conditions: primary human bronchial epithelial cells; actives raise or lower the signal
Calls of active or inactive are those of the source. Rule for the calls: active = hit-call score of the fitted dose curve at least 0.9, where 1 is the maximum; inactive = score below 0.9.
Classes to choose from: active, inactive

Can you look up the reported call for O=S1(=O)CCCO1 for me?
inactive

Consider next the molecule COc1cc(C(C)C)c2c(c1)S(=O)(=O)N(COc1cc(=O)n3cccc(OCCN4CCCCC4)c3n1)C2=O in the same way.
active

Okay, and c1ccc2ncccc2c1 ?
inactive

Entry CCOc1ccc2[nH]cc(C(=O)NCc3ccccc3)c(=O)c2n1 please
inactive

# repeat for OC(Cn1cncn1)(Cn1cncn1)c1ccc(F)cc1F
inactive

Can you check O=C1CN(N=Cc2ccc([N+](=O)[O-])o2)C(=O)N1 next?
inactive
